experiment: First dissolution experiment: sample stirred into the oil phase of an SPF 25 sunscreen oil, 3% DHHB; format: physicochemical; settings: added concentration 3%, 25°C, stirring rate 150 r/min
Reported Sample dissolution time is given for each of the following compounds.

CCCCCCOC(=O)c1ccccc1C(=O)c1ccc(N(CC)CC)cc1O [Comparative Example 2, reference compound] :: 134 min
CCCCCCOC(=O)c1ccccc1C(=O)c1ccc(N(CC)CC)cc1O [Example 5] :: < 5 min
CCCCCCOC(=O)c1ccccc1C(=O)c1ccc(N(CC)CC)cc1O [Comparative Example 1] :: 151 min

response.value for CCCCCCOC(=O)c1ccccc1C(=O)c1ccc(N(CC)CC)cc1O [Example 4] (field: Sample dissolution time) = < 5 min

response.value for CCCCCCOC(=O)c1ccccc1C(=O)c1ccc(N(CC)CC)cc1O [Example 2] (field: Sample dissolution time) = < 5 min

response.value for CCCCCCOC(=O)c1ccccc1C(=O)c1ccc(N(CC)CC)cc1O [Example 3] (field: Sample dissolution time) = < 5 min
